target: human CD33 F44P (human, UniProt P20138 18-364); test: flow cytometry, mutant on cells, IgG
Sequence (P20138 18-364 F44P limits assumed): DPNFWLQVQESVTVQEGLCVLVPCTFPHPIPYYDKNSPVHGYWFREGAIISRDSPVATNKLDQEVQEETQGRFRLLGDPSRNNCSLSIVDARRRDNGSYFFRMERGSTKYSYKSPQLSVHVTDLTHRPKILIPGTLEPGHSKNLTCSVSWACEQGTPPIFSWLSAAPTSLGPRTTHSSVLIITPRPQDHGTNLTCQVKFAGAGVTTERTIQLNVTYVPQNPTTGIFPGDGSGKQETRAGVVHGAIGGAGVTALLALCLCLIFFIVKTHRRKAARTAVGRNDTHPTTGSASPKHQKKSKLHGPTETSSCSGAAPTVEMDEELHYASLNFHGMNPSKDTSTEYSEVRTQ
readout-kind: Mean % WT Binding (% WT binding)
Write the answer as a number in % WT binding, unit excluded.

For orientation, consider the following solved cases.
{"binder": "Refmab #3 (antibody, human IgG1, V domains shown, Tested in IgG format; human IgG1 Fc silent (PG-LALA)) VH: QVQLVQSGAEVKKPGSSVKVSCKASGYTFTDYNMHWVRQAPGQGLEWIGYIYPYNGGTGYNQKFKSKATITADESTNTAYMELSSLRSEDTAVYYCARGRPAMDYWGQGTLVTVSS VL: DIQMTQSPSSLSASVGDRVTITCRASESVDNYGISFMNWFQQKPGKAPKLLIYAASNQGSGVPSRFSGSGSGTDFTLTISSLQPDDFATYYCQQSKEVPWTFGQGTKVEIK", "endpoint-unit": "% WT binding", "Mean % WT Binding": 2}
{"binder": "Refmab #2 (antibody, human IgG1, V domains shown, Tested in IgG format; human IgG1 Fc silent (PG-LALA)) VH: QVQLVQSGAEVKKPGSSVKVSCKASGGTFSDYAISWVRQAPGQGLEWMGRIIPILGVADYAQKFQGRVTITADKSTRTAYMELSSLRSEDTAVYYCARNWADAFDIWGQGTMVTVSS VL: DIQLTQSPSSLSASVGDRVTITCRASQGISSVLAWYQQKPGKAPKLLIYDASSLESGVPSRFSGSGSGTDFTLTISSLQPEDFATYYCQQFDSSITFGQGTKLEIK", "endpoint-unit": "% WT binding", "Mean % WT Binding": 0.4}
{"binder": "Refmab #1 (antibody, human IgG1, V domains shown, Tested in IgG format; human IgG1 (Absolute Antibody hP67.6, Cat. No. Ab00283-10.0); also called hP67.6) VH: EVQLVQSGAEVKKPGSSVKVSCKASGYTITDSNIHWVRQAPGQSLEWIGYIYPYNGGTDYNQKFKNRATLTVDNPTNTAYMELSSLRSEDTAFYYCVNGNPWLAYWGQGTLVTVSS VL: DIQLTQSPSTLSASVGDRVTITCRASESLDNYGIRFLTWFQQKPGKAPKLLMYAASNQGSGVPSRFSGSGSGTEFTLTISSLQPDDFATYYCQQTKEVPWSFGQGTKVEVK", "endpoint-unit": "% WT binding", "Mean % WT Binding": 37.1}

Here's the next entry for you.
Asked: Could you share which Mean % WT Binding value was measured for Refmab #4 (antibody, human IgG1, V domains shown, Tested in IgG format; human IgG1 Fc silent (PG-LALA)) VH: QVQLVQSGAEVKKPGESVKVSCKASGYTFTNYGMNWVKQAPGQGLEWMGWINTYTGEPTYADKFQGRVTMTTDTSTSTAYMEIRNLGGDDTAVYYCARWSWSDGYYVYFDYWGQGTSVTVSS VL: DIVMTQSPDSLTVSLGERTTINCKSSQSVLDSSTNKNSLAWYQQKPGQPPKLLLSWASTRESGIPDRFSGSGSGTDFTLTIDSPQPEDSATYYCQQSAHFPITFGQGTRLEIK ?
Given back: 104
